Each record here notes measured -log10 GI50.
- Tested on: MDAMB175VII
- experimentalDetails: -log10 GI50 (growth inhibition 50%) (-log10(M)); higher = more potent growth inhibition

Example results:
| chemicalSmiles | -log10 GI50 |
| --- | --- |
| Cc1cncc2cccc(S(=O)(=O)N3CCCN(C(=O)CN)C[C@@H]3C)c12 | < 4.18 |
| Cc1cc(Nc2cc(N3CCN(C)CC3)nc(Sc3ccc(NC(=O)C4CC4)cc3)n2)n[nH]1 | 4.72 |

Challenge: Return reported -log10 GI50; argument: CC[C@H](CO)Nc1nc(NCc2ccccc2O)c2ncn(C(C)C)c2n1
Response given: 5.14

Challenge: Return reported -log10 GI50; argument: Cc1ccc(C(=O)N(CCCN)[C@@H](c2nc3cc(Cl)ccc3c(=O)n2Cc2ccccc2)C(C)C)cc1
Response given: 5.84

Challenge: Return reported -log10 GI50; argument: CCNCCCCNCCCCNCCCCNCCCCNC/C=C/CNCCCCNCCCCNCCCCNCCCCNCC
Response given: 6.79

Challenge: Return reported -log10 GI50; argument: CSCC[C@H](NC(=O)[C@H](Cc1ccccc1)NC[C@@H](NC[C@@H](N)CS)C(C)C)C(=O)O
Response given: < 4.48

Challenge: Return reported -log10 GI50; argument: CNC(=O)c1c(F)cccc1Nc1nc(Nc2cc3c(cc2OC)CCN3C(=O)CN(C)C)nc2[nH]ccc12
Response given: 5.29

###

- Tested on: SKBR3
- experimentalDetails: -log10 GI50 (growth inhibition 50%) (-log10(M)); higher = more potent growth inhibition
Each record here notes measured -log10 GI50.
# output: bare number, no unit

Example results:
| molecule | studySystem | -log10 GI50 |
| --- | --- | --- |
| C#Cc1cccc(Nc2ncnc3cc(OCCOC)c(OCCOC)cc23)c1 | SKBR3 | 4.8 |
| N.N.[Cl][Pt][Cl] [Cisplatin] | SKBR3 | 4.77 |
| COc1cc(Nc2c(C#N)cnc3cc(OCCCN4CCN(C)CC4)c(OC)cc23)c(Cl)cc1Cl | SKBR3 | 5.41 |

Challenge: Return reported -log10 GI50; argument: O=C(O)C1(C(=O)O)CCC1.[NH2-].[NH2-].[Pt+2]
Response given: 5

Challenge: Return reported -log10 GI50; argument: O=c1cc(-c2ccccc2)oc2cc(O)c(O)c(O)c12
Response given: 3.96

Challenge: Return reported -log10 GI50; argument: COc1cc2c(Nc3ccc(NC(=O)c4ccccc4)cc3)ncnc2cc1OCCCN1CCOCC1
Response given: 4.76

Challenge: Return reported -log10 GI50; argument: CCN(CC)C(=S)SSC(=S)N(CC)CC
Response given: 7.1

Challenge: Return reported -log10 GI50; argument: Oc1cc(-c2nc(-c3ccccc3)[nH]c2-c2ccncc2)ccc1Cl
Response given: 4.66

Challenge: Return reported -log10 GI50; argument: CNC(=O)c1cc(Oc2ccc(NC(=O)Nc3ccc(Cl)c(C(F)(F)F)c3)cc2)ccn1
Response given: 4.35

Challenge: Return reported -log10 GI50; argument: CC(=O)NCC(=O)N1[C@@H]2CC[C@H]1c1ccc(Nc3ncc(C(F)(F)F)c(NC4CCC4)n3)cc12
Response given: 5.38

###

Each record here notes measured -log10 GI50.
- Test system: HCC1954
- experimentalDetails: -log10 GI50 (growth inhibition 50%) (-log10(M)); higher = more potent growth inhibition

| molecule | studySystem | -log10 GI50 |
| --- | --- | --- |
| CCC[C@H](N[C@H]1CCc2cc(F)cc(F)c2C1)C(=O)Nc1cn(C(C)(C)CNCC(C)(C)C)cn1 | HCC1954 | 4.84 |
| N#Cc1c(-c2ccccc2)cc(-c2cc(Br)ccc2O)[nH]c1=O | HCC1954 | 4.52 |
| COc1cc(Nc2c(C#N)cnc3cc(OCCCN4CCN(C)CC4)c(OC)cc23)c(Cl)cc1Cl | HCC1954 | 5.92 |
| O=C1C(Cl)=C(NCCN2CCOCC2)C(=O)c2ncccc21 | HCC1954 | 5.22 |
| O=S(=O)(CC1CS1)c1ccc(Oc2ccccc2)cc1 (stereo unspecified) | HCC1954 | < 4 |

Challenge: Return reported -log10 GI50; argument: O=C1NC(=O)/C(=C/c2ccc3nccc(-c4ccncc4)c3c2)S1
Response given: 6.68

Challenge: Return reported -log10 GI50; argument: CCc1c2c(nc3ccc(OC(=O)N4CCC(N5CCCCC5)CC4)cc13)-c1cc3c(c(=O)n1C2)COC(=O)[C@]3(O)CC
Response given: 4.72

Challenge: Return reported -log10 GI50; argument: CC(C)Oc1ccc(C(=O)N[C@H](CNC(=O)CN(C)C)Cc2ccc(-c3cn4cccc([C@H](C)O)c4n3)cc2)cc1Cl
Response given: 7.6
